A short record of Ki observed with UniProt P08913 follows.
Sequence (P08913 whole entry): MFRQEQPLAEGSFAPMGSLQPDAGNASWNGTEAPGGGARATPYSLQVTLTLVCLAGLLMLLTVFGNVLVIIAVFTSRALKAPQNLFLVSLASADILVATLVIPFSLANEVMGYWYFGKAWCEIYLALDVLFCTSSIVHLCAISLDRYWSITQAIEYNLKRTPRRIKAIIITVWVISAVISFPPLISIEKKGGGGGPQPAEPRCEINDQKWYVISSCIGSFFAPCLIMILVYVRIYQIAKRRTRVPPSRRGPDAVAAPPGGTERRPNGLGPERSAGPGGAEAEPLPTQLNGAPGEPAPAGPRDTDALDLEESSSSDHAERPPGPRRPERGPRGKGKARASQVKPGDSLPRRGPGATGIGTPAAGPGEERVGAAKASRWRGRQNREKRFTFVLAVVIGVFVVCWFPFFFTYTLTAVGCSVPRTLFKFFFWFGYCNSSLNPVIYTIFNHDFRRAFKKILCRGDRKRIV
Endpoint: Ki (nM)

Molecule	Value unit	Ki
CC1CNC(Nc2c(Cl)cccc2Cl)=N1 (centres undefined)	nM	1950
CC1CCC(=Nc2ccc(I)cc2Cl)N1 (centres undefined)	nM	2570

(I) C1COC(NC(C2CC2)C2CC2)=N1
(II) Clc1ccccc1NC1=NCCC1
Higher Ki between I and II ? Reply with the label of the item you choose.
II

###

The following compounds are listed with their measured pKi values.
# Procedure details: Displacement of [3H]idazoxan from imidazoline I2 receptor in New Zealand rabbit renal cortex homogenate after 60 mins […]
# Parameters: species or system Oryctolagus cuniculus

Some entries whose results are on file:
Compound	pKi
CC1CCC(Nc2ccccc2Cl)=N1 (configuration not stated)	< 5
Clc1ccccc1NC1=NCCC1	6.1
Clc1cccc(Cl)c1NC1=NCCN1	< 5
CC1COC(NC(C2CC2)C2CC2)=N1 (configuration not stated)	< 5
CC1CCC(Nc2ccc(I)cc2Cl)=N1 (configuration not stated)	< 5
C1COC(NC(C2CC2)C2CC2)=N1	< 5

API: the following record is the query input.
State its pKi: CC1CNC(Nc2c(Cl)cccc2Cl)=N1 (configuration not stated)
< 5

###

# Target or system: Nischarin (Rattus norvegicus, UniProt Q4G017)
# Sequence (Q4G017 whole entry): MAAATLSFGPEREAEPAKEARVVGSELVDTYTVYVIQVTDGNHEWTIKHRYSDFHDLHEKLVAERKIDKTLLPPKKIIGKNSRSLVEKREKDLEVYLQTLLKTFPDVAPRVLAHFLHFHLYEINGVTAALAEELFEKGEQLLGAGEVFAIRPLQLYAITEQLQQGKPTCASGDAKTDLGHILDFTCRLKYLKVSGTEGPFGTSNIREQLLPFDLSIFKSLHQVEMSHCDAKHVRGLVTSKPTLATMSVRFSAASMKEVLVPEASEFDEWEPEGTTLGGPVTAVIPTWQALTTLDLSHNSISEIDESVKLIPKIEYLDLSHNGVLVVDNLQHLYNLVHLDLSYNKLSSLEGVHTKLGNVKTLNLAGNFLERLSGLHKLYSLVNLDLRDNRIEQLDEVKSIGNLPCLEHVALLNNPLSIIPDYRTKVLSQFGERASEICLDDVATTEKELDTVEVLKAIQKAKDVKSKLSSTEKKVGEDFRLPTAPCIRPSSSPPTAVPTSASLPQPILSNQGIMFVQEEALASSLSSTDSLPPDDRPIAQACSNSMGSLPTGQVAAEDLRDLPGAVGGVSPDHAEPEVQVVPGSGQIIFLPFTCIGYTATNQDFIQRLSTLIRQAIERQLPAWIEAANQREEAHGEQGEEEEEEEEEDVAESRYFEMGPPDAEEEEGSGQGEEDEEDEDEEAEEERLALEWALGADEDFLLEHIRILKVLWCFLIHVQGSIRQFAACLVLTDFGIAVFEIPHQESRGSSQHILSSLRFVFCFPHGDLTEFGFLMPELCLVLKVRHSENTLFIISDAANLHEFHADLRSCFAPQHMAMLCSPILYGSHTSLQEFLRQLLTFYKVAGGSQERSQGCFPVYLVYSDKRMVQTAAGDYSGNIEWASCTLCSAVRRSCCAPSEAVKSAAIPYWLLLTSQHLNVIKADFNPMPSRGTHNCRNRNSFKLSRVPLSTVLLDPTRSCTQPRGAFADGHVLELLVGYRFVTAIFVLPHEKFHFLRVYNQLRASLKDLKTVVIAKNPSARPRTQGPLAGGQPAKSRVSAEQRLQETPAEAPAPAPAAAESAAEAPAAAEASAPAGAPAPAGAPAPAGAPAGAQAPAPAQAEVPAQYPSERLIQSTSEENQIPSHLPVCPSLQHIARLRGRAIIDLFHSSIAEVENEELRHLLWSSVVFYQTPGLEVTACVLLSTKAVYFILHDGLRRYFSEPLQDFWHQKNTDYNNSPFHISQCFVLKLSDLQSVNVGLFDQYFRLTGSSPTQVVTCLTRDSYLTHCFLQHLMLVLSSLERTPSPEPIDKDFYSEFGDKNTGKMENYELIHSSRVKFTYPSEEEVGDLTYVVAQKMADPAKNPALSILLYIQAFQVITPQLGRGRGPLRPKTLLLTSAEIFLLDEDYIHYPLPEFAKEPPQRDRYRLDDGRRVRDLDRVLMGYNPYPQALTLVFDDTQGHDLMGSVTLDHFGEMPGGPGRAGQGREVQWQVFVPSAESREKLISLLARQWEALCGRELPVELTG
# Procedure details: Displacement of [125I]paraiodoclonidine from imidazoline I1 receptor in rat PC12 cells after 30 mins by gamma counter
Endpoint: Ki (nM)

Compound	Ki [nM]
Clc1cccc(Cl)c1NC1=NCCN1 [CLONIDINE]	282
CC1CNC(Nc2c(Cl)cccc2Cl)=N1 (stereo unspecified)	0.933

(a) Clc1ccccc1NC1=NCCC1
(b) CC1CCC(Nc2ccccc2Cl)=N1 (stereo unspecified)
(c) CC1COC(NC(C2CC2)C2CC2)=N1 (stereo unspecified)
(d) CC1CCC(=Nc2ccc(I)cc2Cl)N1 (stereo unspecified)
List by increasing Ki. Show the ranking through the labels, in the order asked for.
d, a, b, c
(d: 0.219 nM, a: 77.6 nM, b: 132 nM, c: 363 nM)
